Experiment: Multiple-dose plasma PK of IV Compound A in patients with NT2
Assay type: in vivo, human
Details: human, plasma, intravenous, 112 mg, Cmpd A 112 mg; 9 Hours Postdose at Day 1; read-out: Plasma Concentration Mean
parameter: concentration at 9 h (ng/mL)
Write the answer as a number in ng/mL, unit excluded.

QUERY: Any idea what concentration at 9 h was measured for COC(=O)N1CCC[C@H](NS(C)(=O)=O)[C@@H]1CO[C@H]1CC[C@@H](c2ccccc2)CC1 [Compound A] ?
RESULT: 150

* * *

Test: Plasma PK of Compound A after a single 9-hour IV infusion in sleep-deprived healthy male subjects
Type: in vivo, human
Conditions: male, human, plasma, iv, 112 mg, 112 mg [HD] single 9-hour IV infusion; read-out: Vz (Mean)
parameter: Vd (L)
Write the answer as a number in L, unit excluded.

QUERY: Any idea what Vd was measured for COC(=O)N1CCC[C@H](NS(C)(=O)=O)[C@@H]1CO[C@H]1CC[C@@H](c2ccccc2)CC1 ?
RESULT: 223
